Origin of values: patent US20250091995A1

- assay-explanation: Solubility test in various test solutions and pHs
- Type: physicochemical
- condition-notes: McIlvaine buffer, pH 6, aqueous buffer, thermodynamic from solid, McIlvaine buffer pH 6; shaken 14 hours
- Description: This test aims at measurement of solubility of the crystal in various test solutions and under various pHs. The solubility is one of the indices of the stability of the above-mentioned crystal form I, crystal form II and crystal form III and can be used also as a reference indices of absorbability of crystal form by living organisms. […]
endpoint-name: solubility at 14 h (µg/mL)
All answers are understood in µg/mL, so give the number only.

The compound identified as COc1cc2c(cc1Cc1cccc(Cl)c1F)c(=O)c(C(=O)O)cn2[C@H](CO)C(C)C [Crystal form II] registered its solubility at 14 h at 1
